Molecular target: B1R receptor of the rat (Rattus norvegicus, UniProt P97583)
Construct: host or cells: CHO K1 cells (Chinese hamster ovary), stably transfected
Sequence (P97583 1-337): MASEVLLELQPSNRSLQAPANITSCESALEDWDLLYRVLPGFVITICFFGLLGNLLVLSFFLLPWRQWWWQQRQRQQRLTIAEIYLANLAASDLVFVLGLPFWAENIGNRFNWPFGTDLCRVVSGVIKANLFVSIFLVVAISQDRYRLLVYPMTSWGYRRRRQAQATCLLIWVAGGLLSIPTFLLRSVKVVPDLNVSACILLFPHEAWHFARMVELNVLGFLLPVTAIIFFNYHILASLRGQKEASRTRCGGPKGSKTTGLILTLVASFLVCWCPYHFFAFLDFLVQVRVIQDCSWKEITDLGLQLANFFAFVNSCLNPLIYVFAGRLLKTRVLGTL
Test: Functional study on the bradykinin receptor 1 (B1R), FLIPR Ca2+ assay, rB1R cells
Format: cell-based
Conditions: CHO-K1, test substance 10 μM, agonist Des-Arg9-bradykinin 100 nM, % inhibition compared with the maximum achievable inhibition, read-out: B1R Antagonism, rat [10 μM] % Inhibition
Description: The agonistic or antagonistic action of substances can be quantified on the bradykinin receptor 1 (B1R) of the species human and rat with ectopically expressing cell lines (CHO K1 cells) and with the aid of a Ca^2+-sensitive dye (Fluo-4) using a fluorescent imaging plate reader (FLIPR). […] The agonistic or antagonistic action of substances can be determined on the bradykinin receptor 1 (B1R) of the species human and rat using the following assay. […]
Counter-ions that a name gives are not always drawn.
Assay Endpoint: inhibition at 10 µM (%)
One number for each entry, in %.

A selection of reference data follows.
Compound | Reading Unit | inhibition at 10 µM
O=C(COCC1CCCN1S(=O)(=O)c1c(Cl)cc(Cl)cc1Cl)N1CCC(CCN2CCCCC2)CC1 (stereo not drawn) | % | 101
CN1CCC(CN2CCN(C(=O)COC[C@@H]3Cc4ccccc4CN3S(=O)(=O)c3ccc(Cl)cc3Cl)CC2)CC1 | % | 99
COc1cc(C)c(S(=O)(=O)N2CCCCC2COCC(=O)N2CCN(Cc3nc4ccccc4[nH]3)CC2)c(C)c1 (stereo not drawn) | % | 101

Hey, quick one: what's inhibition at 10 µM for each of these?
1. O=C(COCC1CCCCN1S(=O)(=O)c1c(Cl)cccc1Cl)N1CCN(c2ccc(C(F)(F)F)cc2)CC1 (stereo not drawn)
2. COc1cc(C)c(S(=O)(=O)N2CCCC2COCC(=O)N(C)C(CN2CCCC2)c2ccccc2)c(C)c1 (stereo not drawn)

1. 101
2. 99.7

Hey, quick one: what's inhibition at 10 µM for each of these?
1. COc1cc(C)c(S(=O)(=O)N2CCCCC2COCC(=O)N2CCC(N3CCN(C)CC3)CC2)c(C)c1 (stereo not drawn) [Example 112, hydrochloride]
2. COc1cc(C)c(S(=O)(=O)N2CCCCC2COCC(=O)N2CCC[C@H]2CN2CCCC2)c(C)c1 (stereo partly drawn)
3. COc1cc(C)c(S(=O)(=O)N2CCCC2COCC(=O)N2CC[C@@H](N(C)C)C2)c(C)c1 (stereo partly drawn)
4. COc1ccc(S(=O)(=O)N2CCCCC2COCC(=O)N2CCN(c3nc(CCc4ccccc4)cs3)CC2)cc1 (stereo not drawn)
5. COc1cc(C)c(S(=O)(=O)N2CCCCC2COCC(=O)N2CCN(c3ccncc3)CC2)c(C)c1 (stereo not drawn)
6. COc1ccc(S(=O)(=O)N2CCCCC2CCOCC(=O)N2CCN(CCN3CCCCC3)CC2)cc1 (stereo not drawn)
7. CN1CCN(C2CCN(C(=O)COCC3Cc4ccccc4CN3S(=O)(=O)c3ccc(Cl)cc3Cl)CC2)CC1 (stereo not drawn)
8. COc1cc(C)c(S(=O)(=O)N2CCCCC2COCC(=O)N2CCN(Cc3ccc(C)cc3)CC2)c(C)c1 (stereo not drawn)

1: 102; 2: 102; 3: 100; 4: 86.3; 5: 100; 6: 89.6; 7: 86.7; 8: 99.5

Hey, quick one: what's inhibition at 10 µM for each of these?
1. COc1cc(C)c(S(=O)(=O)N2CCCC2COCC(=O)Nc2nc3ccccc3n2C)c(C)c1 (stereo not drawn)
2. COc1cc(C)c(S(=O)(=O)N2Cc3ccccc3CC2COCC(=O)N2CCN(CCCN(C)C)CC2)c(C)c1C (stereo not drawn)

1: 90.6; 2: 99.3

* * *

Biological target: B1R receptor of the rat (Rattus norvegicus)
Construct: host or cells: CHO K1 cells (Chinese hamster ovary), stably transfected
Sequence (P97583 1-337): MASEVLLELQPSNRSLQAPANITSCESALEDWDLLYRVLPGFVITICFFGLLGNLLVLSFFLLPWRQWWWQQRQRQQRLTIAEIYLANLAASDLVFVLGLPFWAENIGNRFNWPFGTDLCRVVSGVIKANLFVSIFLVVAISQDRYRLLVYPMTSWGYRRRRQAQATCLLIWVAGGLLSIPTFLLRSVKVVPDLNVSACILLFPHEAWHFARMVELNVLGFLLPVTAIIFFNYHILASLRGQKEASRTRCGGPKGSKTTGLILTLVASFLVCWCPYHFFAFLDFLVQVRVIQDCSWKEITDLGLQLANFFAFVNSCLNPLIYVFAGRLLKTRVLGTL
Assay: Functional study on the bradykinin receptor 1 (B1R), FLIPR Ca2+ assay, rB1R cells
Format: cell-based
Settings: CHO-K1, test substance 10 μM, agonist Des-Arg9-bradykinin 100 nM, % inhibition compared with the maximum achievable inhibition, read-out: B1R Antagonism, rat [10 μM] % Inhibition
Assay Endpoint: inhibition at 10 µM (%)
Give bare numbers, in %.

A selection of reference data follows.
Compound | Assay Endpoint | Recorded Measurement
COc1cc(C)c(S(=O)(=O)N2CCCC2COCC(=O)NC(CN2CCCC2)c2ccccc2)c(C)c1 (centres unmarked) | inhibition at 10 µM | 101
COc1cc(C)c(S(=O)(=O)N2CCCCC2COCC(=O)Nc2cc(-c3ccccc3)n[nH]2)c(C)c1 (centres unmarked) | inhibition at 10 µM | 106
O=C(COCC1CCCCN1S(=O)(=O)c1c(Cl)cccc1Cl)N1CCN(c2ncc(Cl)cc2Cl)CC1 (centres unmarked) | inhibition at 10 µM | 102
O=C(COCC1CCCCN1S(=O)(=O)c1cccc(Br)c1)N1CCN(c2ccncc2)CC1 (centres unmarked) | inhibition at 10 µM | 13
Cc1ccc(CN2CCN(C(=O)COCC3CCCCN3S(=O)(=O)c3c(Cl)cccc3Cl)CC2)cc1 (centres unmarked) | inhibition at 10 µM | 99.8

Hey, quick one: what's inhibition at 10 µM for each of these?
1. CCN1CCN(C(=O)COCC2CCCN2S(=O)(=O)c2c(C)cc(OC)cc2C)CC1 (centres unmarked)
2. O=C(COCC1Cc2ccccc2N1S(=O)(=O)c1ccc(Cl)c(Cl)c1)NCC1CCCN(Cc2ccccc2)C1 (centres unmarked)
3. COc1cc(C)c(S(=O)(=O)N2CCCCC2COCC(=O)Nc2ccc(-n3ccnc3C)cc2)c(C)c1 (centres unmarked)

1: 102; 2: 25.5; 3: 98.8

* * *

Kindly state inhibition at 10 µM for each of the entries shown.
Target: human B1R receptor (Homo sapiens)
Construct: host or cells: CHO K1 cells (Chinese hamster ovary), stably transfected
Sequence (P46663 1-353): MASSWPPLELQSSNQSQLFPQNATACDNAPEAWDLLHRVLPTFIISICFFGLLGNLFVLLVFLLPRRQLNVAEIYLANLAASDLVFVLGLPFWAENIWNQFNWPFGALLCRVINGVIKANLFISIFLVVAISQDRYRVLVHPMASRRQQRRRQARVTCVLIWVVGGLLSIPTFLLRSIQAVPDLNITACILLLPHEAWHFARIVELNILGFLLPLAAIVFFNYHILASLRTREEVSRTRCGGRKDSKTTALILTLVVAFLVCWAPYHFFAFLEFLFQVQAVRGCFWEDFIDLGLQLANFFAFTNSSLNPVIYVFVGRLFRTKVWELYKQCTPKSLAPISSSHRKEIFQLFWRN
Assay: Functional study on the bradykinin receptor 1 (B1R), FLIPR Ca2+ assay, hB1R cells
Type: cell-based
Conditions: CHO-K1, test substance 10 μM, agonist Lys-Des-Arg9-bradykinin 0.5 nM, % inhibition compared with the maximum achievable inhibition, read-out: B1R Antagonism, human [10 μM] % Inhibition

Compound | Target Of Assay | Assay Endpoint | Recorded Measurement
COc1cc(C)c(S(=O)(=O)N2CCCCC2COCC(=O)N2CCN(Cc3ccc(Cl)c(Cl)c3)CC2)c(C)c1 (stereo not shown) | human B1R receptor (Homo sapiens) | inhibition at 10 µM | 77.9%
CN1CCC(N2CCN(C(=O)COCC3CCCCN3S(=O)(=O)c3ccc(Cl)c4nonc34)CC2)CC1 (stereo not shown) | human B1R receptor (Homo sapiens) | inhibition at 10 µM | 83.2%
COCCN1CCN(C(=O)COCC2Cc3ccccc3CN2S(=O)(=O)c2c(C)cc(C)cc2C)CC1 (stereo not shown) | human B1R receptor (Homo sapiens) | inhibition at 10 µM | 56.4%

Proceeding to the next compound to report its inhibition at 10 µM.
The reported inhibition at 10 µM of the compound COc1cc(C)c(S(=O)(=O)N2CCCCC2COCC(=O)N2CCN(c3nc(-c4ccccc4)cs3)CC2)c(C)c1 (stereo not shown) was 47.1%
